targetDesc: N-type calcium channel (Homo sapiens)
Construct: expressed in transfected cells
Sequence (Q00975 whole entry): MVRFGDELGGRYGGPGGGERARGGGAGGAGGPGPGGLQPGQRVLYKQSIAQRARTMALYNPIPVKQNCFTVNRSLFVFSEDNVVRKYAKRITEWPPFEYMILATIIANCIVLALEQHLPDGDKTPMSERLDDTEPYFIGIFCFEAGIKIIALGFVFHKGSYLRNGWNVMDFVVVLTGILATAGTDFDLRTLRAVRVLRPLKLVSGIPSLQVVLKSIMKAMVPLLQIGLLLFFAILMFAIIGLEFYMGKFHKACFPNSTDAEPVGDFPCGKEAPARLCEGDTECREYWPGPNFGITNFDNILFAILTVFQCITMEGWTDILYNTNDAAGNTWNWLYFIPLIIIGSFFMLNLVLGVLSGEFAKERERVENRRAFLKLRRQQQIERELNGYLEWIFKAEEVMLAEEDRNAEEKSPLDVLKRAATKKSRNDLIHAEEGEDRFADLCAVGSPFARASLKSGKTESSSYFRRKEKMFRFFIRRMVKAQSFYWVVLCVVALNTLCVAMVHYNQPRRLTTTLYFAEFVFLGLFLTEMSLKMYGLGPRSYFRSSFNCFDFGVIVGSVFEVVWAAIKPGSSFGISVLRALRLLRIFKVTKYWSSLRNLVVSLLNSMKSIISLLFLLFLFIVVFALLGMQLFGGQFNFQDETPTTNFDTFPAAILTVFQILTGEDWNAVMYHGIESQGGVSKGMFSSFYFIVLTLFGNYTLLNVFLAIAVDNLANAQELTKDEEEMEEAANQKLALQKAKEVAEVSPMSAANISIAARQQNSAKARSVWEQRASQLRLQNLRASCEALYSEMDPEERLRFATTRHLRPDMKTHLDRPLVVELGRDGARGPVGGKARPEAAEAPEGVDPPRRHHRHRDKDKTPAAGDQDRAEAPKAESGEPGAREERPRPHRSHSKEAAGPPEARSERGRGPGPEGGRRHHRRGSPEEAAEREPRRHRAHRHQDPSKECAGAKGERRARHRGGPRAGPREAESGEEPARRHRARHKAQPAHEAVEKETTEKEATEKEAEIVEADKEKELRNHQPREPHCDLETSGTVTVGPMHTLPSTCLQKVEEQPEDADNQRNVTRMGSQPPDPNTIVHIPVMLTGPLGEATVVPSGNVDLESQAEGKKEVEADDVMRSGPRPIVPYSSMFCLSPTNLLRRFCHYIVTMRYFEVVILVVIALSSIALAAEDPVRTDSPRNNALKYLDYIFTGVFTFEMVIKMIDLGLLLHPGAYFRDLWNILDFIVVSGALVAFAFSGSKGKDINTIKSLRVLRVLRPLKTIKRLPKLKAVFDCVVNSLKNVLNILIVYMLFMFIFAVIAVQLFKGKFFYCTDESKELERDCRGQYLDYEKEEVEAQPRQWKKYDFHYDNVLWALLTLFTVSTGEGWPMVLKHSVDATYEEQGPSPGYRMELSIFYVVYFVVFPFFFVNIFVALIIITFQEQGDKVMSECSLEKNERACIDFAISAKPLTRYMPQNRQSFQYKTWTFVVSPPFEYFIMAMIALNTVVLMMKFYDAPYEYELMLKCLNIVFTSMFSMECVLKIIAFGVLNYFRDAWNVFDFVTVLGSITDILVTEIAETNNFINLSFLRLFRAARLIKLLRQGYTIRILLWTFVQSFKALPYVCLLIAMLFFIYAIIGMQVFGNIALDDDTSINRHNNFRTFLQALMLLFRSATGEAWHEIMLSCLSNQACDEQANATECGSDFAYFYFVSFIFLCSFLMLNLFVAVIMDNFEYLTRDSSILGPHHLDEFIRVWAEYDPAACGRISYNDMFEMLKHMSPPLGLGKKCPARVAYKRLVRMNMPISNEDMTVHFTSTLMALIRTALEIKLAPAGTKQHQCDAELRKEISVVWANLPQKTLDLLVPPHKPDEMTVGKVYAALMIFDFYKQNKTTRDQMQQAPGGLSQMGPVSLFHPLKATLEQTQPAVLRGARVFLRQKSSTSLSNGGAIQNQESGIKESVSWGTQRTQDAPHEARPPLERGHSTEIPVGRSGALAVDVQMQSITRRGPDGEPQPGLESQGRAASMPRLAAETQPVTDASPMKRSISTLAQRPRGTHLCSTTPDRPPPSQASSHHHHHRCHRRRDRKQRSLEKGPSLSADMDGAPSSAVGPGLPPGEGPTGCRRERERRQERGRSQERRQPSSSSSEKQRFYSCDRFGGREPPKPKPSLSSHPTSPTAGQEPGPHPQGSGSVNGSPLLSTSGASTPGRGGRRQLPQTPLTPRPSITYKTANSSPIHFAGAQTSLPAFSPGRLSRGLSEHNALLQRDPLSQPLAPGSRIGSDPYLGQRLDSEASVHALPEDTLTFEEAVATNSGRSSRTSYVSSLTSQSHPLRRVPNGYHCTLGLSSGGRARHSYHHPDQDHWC
Sequence (P54284 whole entry partner): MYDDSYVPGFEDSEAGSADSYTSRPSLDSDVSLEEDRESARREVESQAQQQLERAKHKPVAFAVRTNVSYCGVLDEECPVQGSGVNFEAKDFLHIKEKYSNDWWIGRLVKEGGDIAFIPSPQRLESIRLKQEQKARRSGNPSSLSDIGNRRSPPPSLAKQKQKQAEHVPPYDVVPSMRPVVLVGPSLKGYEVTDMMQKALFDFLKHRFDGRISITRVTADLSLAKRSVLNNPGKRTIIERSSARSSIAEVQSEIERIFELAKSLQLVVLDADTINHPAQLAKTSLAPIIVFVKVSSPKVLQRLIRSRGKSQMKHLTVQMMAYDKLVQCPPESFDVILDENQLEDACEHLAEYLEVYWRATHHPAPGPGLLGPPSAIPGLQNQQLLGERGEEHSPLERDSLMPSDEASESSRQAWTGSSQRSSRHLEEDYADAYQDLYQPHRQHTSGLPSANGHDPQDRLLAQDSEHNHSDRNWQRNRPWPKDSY
Sequence (P54289 25-956 partner limits assumed): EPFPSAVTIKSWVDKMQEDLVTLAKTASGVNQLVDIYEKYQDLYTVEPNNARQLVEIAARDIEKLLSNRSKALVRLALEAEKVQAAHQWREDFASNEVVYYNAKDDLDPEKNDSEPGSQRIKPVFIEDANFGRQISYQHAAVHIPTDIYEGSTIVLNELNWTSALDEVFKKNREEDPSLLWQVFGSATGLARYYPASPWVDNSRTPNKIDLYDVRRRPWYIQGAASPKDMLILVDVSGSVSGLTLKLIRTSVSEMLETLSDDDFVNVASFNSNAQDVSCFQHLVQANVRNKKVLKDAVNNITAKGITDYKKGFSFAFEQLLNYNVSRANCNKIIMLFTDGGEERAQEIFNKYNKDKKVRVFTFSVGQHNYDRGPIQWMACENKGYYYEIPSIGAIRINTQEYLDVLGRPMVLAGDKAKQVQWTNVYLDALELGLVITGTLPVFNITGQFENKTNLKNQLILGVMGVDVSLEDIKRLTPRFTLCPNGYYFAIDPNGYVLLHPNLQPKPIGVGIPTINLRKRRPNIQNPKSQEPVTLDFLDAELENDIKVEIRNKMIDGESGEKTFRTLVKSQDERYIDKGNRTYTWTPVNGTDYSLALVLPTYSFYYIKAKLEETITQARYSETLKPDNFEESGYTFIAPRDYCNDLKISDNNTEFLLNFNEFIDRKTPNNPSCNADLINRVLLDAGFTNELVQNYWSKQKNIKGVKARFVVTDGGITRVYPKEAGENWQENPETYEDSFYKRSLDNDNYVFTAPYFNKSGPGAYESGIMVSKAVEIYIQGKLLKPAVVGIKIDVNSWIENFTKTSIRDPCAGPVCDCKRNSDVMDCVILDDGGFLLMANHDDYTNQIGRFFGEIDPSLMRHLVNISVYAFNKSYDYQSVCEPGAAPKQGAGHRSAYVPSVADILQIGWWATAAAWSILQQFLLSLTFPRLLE
Sequence (P54289 957-1103 partner limits assumed): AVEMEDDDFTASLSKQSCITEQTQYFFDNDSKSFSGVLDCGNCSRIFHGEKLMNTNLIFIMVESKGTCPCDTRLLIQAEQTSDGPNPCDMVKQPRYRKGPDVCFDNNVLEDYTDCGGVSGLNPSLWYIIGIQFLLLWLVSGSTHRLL
runDescription: Automated electrophysiology assay (QPatch-HT whole-cell patch clamp)
Format: cell-based
conditionDescription: 0.1 μM; low frequency (1st pulse of train); read-out: QPatch at Low Frequency % Inhibition
For each record, write down the corresponding inhibition at 0.1 µM.
One number for each entry, in %.

> print(dat)
                                   molecule  measurednumber
1  CCOc1ccccc1-n1nc2c(c1-c1ccc(Cl)cc1)CN(S(=O)(=O)C(C)C)C2              42
2  COc1ccccc1-n1nc2c(c1-c1ccc(Cl)cc1)CN(S(=O)(=O)N1C[C@H](C)O[C@@H](C)C1)C2 (mixture of isomers)              53
3  COc1ccccc1-n1nc2c(c1-c1ccc(Cl)cc1)CN(S(=O)(=O)N1CCOCC1)C2              28

Now look at this one.
Q: Requested read-out inhibition at 0.1 µM, target or system N-type calcium channel (Homo sapiens), entry CC1CCN(S(=O)(=O)N2Cc3nn(-c4cccc5c4OCO5)c(-c4ccc(Cl)cc4)c3C2)CC1
A: 12
